# Tested on: HCC1599
# protocol summary: normalised viability (% of control), CellTiter-Blue; higher = more viable cells (about 100 = DMSO control)
# experimental context: 10000 nM; incubation time: 72 h
Assignment: determine reported normalised viability for the given compounds.
The reply should be a number in %, with the unit left off.

// query Request - read-out normalised viability | tested on HCC1599 | compound `S=P(N1CC1)(N1CC1)N1CC1`
// result 82.7

// query Request - read-out normalised viability | tested on HCC1599 | compound `Cc1cc(Nc2cc(CN3CCOCC3)c3nc(C)c(Cc4ccc(Cl)cc4F)n3n2)n[nH]1`
// result 92

// query Request - read-out normalised viability | tested on HCC1599 | compound `N#Cc1ccc(COC[C@H]2O[C@@H](n3c(NCc4ccc(Cl)c(Cl)c4)nc4c(N)ncnc43)[C@H](O)[C@@H]2O)cc1`
// result 22

// query Request - read-out normalised viability | tested on HCC1599 | compound `O=C(Nc1cccnc1)N1CCC(Cc2cccc(Oc3ccc(C(F)(F)F)cn3)c2)CC1`
// result 76.6

// query Request - read-out normalised viability | tested on HCC1599 | compound `NC(=O)c1ccc(I)c([N+](=O)[O-])c1`
// result 89.8

---

# Test system: MDA-MB-231
# protocol summary: normalised response (% of control), CellTox Green; higher = less cell death (100 = DMSO, 0 = benzethonium chloride kill control)
# experimental context: incubation time: 72 h
value type: normalised response

// query Request - read-out normalised response | tested on MDA-MB-231 | compound COc1cc(OC2CCN(C)CC2)ccc1Nc1ncc2c(n1)n(C1CCCC1)c(=O)n2C [AZ 3146] (10000 nM)
// result 81.8%

// query Request - read-out normalised response | tested on MDA-MB-231 | compound COCC1(CO)C(=O)C2CCN1CC2 (stereo not given) [Prima-1 Met] (1000 nM)
// result 98.3%

// query Request - read-out normalised response | tested on MDA-MB-231 | compound COCC[n+]1c2c(n(Cc3cnccn3)c1C)C(=O)c1ccccc1C2=O [YM155] (1000 nM)
// result -31.1%

// query Request - read-out normalised response | tested on MDA-MB-231 | compound COc1cc2c(NC3CCN(C(C)C)CC3)nc(N3CCC(F)(F)CC3)nc2cc1OCCCN1CCCC1 [UNC0642] (1000 nM)
// result 92.8%

// query Request - read-out normalised response | tested on MDA-MB-231 | compound CCc1c2c(nc3ccc(OC(=O)N4CCC(N5CCCCC5)CC4)cc13)-c1cc3c(c(=O)n1C2)COC(=O)[C@]3(O)CC [Irinotecan] (10000 nM)
// result 106%

// query Request - read-out normalised response | tested on MDA-MB-231 | compound O=C(/C=C/c1cccc(S(=O)(=O)Nc2ccccc2)c1)NO [Belinostat] (1000 nM)
// result 22.3%

// query Request - read-out normalised response | tested on MDA-MB-231 | compound CNC(=O)c1cccc(-c2ccc3c(N4CCOC[C@@H]4C)nc(N4CCOC[C@@H]4C)nc3n2)c1 [AZD2014] (1000 nM)
// result 104%

// query Request - read-out normalised response | tested on MDA-MB-231 | compound CNC(=O)c1cc(Oc2ccc(NC(=O)Nc3ccc(Cl)c(C(F)(F)F)c3)c(F)c2)ccn1 [Regorafenib] (1000 nM)
// result 115%

// query Request - read-out normalised response | tested on MDA-MB-231 | compound COc1cc2c(NC3CCN(C(C)C)CC3)nc(N3CCC(F)(F)CC3)nc2cc1OCCCN1CCCC1 [UNC0642] (100 nM)
// result 107%

// query Request - read-out normalised response | tested on MDA-MB-231 | compound O=C(Nc1cccnc1)N1CCC(Cc2cccc(Oc3ccc(C(F)(F)F)cn3)c2)CC1 [PF-3845] (1000 nM)
// result 116%

// query Request - read-out normalised response | tested on MDA-MB-231 | compound CNC(=O)c1cccc(-c2ccc3c(N4CCOC[C@@H]4C)nc(N4CCOC[C@@H]4C)nc3n2)c1 [AZD2014] (100 nM)
// result 121%

// query Request - read-out normalised response | tested on MDA-MB-231 | compound COc1cc2ncnc(Nc3ccc(F)c(Cl)c3)c2cc1OCCCN1CCOCC1 [Gefitinib] (1000 nM)
// result 101%

// query Request - read-out normalised response | tested on MDA-MB-231 | compound NC(=O)c1ccc(I)c([N+](=O)[O-])c1 [Iniparib] (1000 nM)
// result 98.8%

// query Request - read-out normalised response | tested on MDA-MB-231 | compound O=P1(N(CCCl)CCCl)NCCCO1 (stereo not given) [Cyclophosphamide] (400 nM)
// result 107%

// query Request - read-out normalised response | tested on MDA-MB-231 | compound Cc1cc(Nc2cc(CN3CCOCC3)c3nc(C)c(Cc4ccc(Cl)cc4F)n3n2)n[nH]1 [Gandotinib] (10000 nM)
// result 67.7%

// query Request - read-out normalised response | tested on MDA-MB-231 | compound COc1cc(OC2CCN(C)CC2)ccc1Nc1ncc2c(n1)n(C1CCCC1)c(=O)n2C [AZ 3146] (100 nM)
// result 92.5%

// query Request - read-out normalised response | tested on MDA-MB-231 | compound COc1cc2ncnc(Nc3ccc(F)c(Cl)c3)c2cc1OCCCN1CCOCC1 [Gefitinib] (10000 nM)
// result 68.6%

// query Request - read-out normalised response | tested on MDA-MB-231 | compound COc1cc(O)c2c(c1)/C=C/C[C@H](O)[C@H](O)C(=O)/C=C\C[C@H](C)OC2=O [(5Z)-7-Oxozeaenol] (100 nM)
// result 109%

// query Request - read-out normalised response | tested on MDA-MB-231 | compound COc1cc2c(NC3CCN(C(C)C)CC3)nc(N3CCC(F)(F)CC3)nc2cc1OCCCN1CCCC1 [UNC0642] (10000 nM)
// result -38.7%

// query Request - read-out normalised response | tested on MDA-MB-231 | compound CN(C)c1nc(N(C)C)nc(N(C)C)n1 [Altretamine] (1000 nM)
// result 110%

// query Request - read-out normalised response | tested on MDA-MB-231 | compound O=C(Nc1ccncc1)C(=O)c1cn(Cc2ccc(Cl)cc2)c2ccccc12 [Indibulin] (100 nM)
// result 105%

// query Request - read-out normalised response | tested on MDA-MB-231 | compound O=P1(N(CCCl)CCCl)NCCCO1 (stereo not given) [Cyclophosphamide] (4000 nM)
// result 113%

// query Request - read-out normalised response | tested on MDA-MB-231 | compound CCOC(=O)CCNc1cc(N2CCc3ccccc3CC2)nc(-c2ccccn2)n1 [GSK-J4] (10000 nM)
// result 57.7%

// query Request - read-out normalised response | tested on MDA-MB-231 | compound COc1cc2/c(=N/c3ccc(Br)cc3F)nc[nH]c2cc1OCC1CCN(C)CC1 [Vandetanib] (1000 nM)
// result 80.5%

// query Request - read-out normalised response | tested on MDA-MB-231 | compound N#Cc1ccc(COC[C@H]2O[C@@H](n3c(NCc4ccc(Cl)c(Cl)c4)nc4c(N)ncnc43)[C@H](O)[C@@H]2O)cc1 (100 nM)
// result 86.9%

// query Request - read-out normalised response | tested on MDA-MB-231 | compound CNC(=O)c1cccc(-c2ccc3c(N4CCOC[C@@H]4C)nc(N4CCOC[C@@H]4C)nc3n2)c1 [AZD2014] (10000 nM)
// result 107%

// query Request - read-out normalised response | tested on MDA-MB-231 | compound S=P(N1CC1)(N1CC1)N1CC1 [Thio-TEPA] (5000 nM)
// result 109%

// query Request - read-out normalised response | tested on MDA-MB-231 | compound CO[C@H]1C[C@@H]2CC[C@@H](C)[C@@](O)(O2)C(=O)C(=O)N2CCCC[C@H]2C(=O)O[C@H]([C@H](C)C[C@@H]2CC[C@@H](OP(C)(C)=O)[C@H](OC)C2)CC(=O)[C@H](C)/C=C(\C)[C@@H](O)[C@@H](OC)C(=O)[C@H](C)C[C@H](C)/C=C/C=C/C=C/1C [Ridaforolimus] (1 nM)
// result 107%

// query Request - read-out normalised response | tested on MDA-MB-231 | compound C=C1C[C@@H]2[C@H](CC[C@]3(C)C(=O)CC[C@@H]23)[C@@]2(C)C=CC(=O)C=C12 [Exemestane] (10000 nM)
// result 92.4%

// query Request - read-out normalised response | tested on MDA-MB-231 | compound Cc1[nH]c2ccccc2c1CCNCc1ccc(/C=C/C(=O)NO)cc1 [Panobinostat] (1000 nM)
// result -36.7%
